targetOrTestSystem: Dihydrofolate reductase (Homo sapiens) (UniProt P00374)
Sequence (whole entry): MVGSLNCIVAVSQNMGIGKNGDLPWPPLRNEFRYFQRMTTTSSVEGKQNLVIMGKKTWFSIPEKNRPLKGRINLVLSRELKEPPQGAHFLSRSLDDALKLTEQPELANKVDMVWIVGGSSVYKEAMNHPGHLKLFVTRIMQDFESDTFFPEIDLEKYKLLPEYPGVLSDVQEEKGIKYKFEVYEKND
Form field: log(1/I50) (one value per entry).
Enter a number only.

Look over these answered cases.
> print(dat)
                                   compound  measured
1     Cc1c(CNc2cccc(Br)c2)ccc2nc(N)nc(N)c12      8.82
2  Nc1nc(N)c2cc(NCc3ccc(C(=O)NC(CCC(=O)O)C(=O)O)cc3)ccc2n1 (stereo not given)         8
3  Nc1nc(N)c2cc(Oc3ccc(CNc4ccc(C(=O)NC(CC(=O)O)C(=O)O)cc4)cc3)ccc2n1 (stereo not given)      7.77
4  NC(=O)CCC(NC(=O)c1ccc(NCc2ccc3nc(N)nc(N)c3c2)cc1)C(=O)O (stereo not given)      10.1
5  Cc1c(CNc2ccc(Cl)c(Cl)c2)ccc2nc(N)nc(N)c12      8.59
6        Nc1nc(N)c2cc(CNc3cccc(Cl)c3)ccc2n1         8
7  Nc1nc(O)c2cc(CCc3ccc(C(=O)NC(CCC(=O)O)C(=O)O)cc3)ccc2n1 (stereo not given)      6.31
8  COc1cc(NCc2ccc3nc(N)nc(N)c3c2)cc(OC)c1OC      8.22

So, Nc1nc(N)c2cc(CN(C=O)c3ccc(C(=O)NC(CCC(=O)O)C(=O)O)cc3)ccc2n1 (stereo not given) ? Its log(1/I50) was 8.22

So, `Nc1nc(N)c2cc(CNc3ccc(C(=O)NC(CC(=O)O)CC(=O)O)cc3)ccc2n1` ? Its log(1/I50) was 8.25
